System: LRRK2 pSer935
Experiment: LRRK2 Ser935 dephosphorylation (immunoblot) in WT MEFs
Format: cell-based, mouse
Settings: Mus musculus; dose response, 4 h treatment; read-out: WT MEFs pSer935 LRRK2-dephosphrylation EC50
Method: Western blot degradation assays for the LRRK2 protacs were performed with WT and PD-associated LRRK2 [G2019S] mouse embryonic fibroblasts (MEFs). The second-generation PROTACs were tested in parallel with the first generation PROTACs SD75, SD82, and SD100. The compounds were tested at 33 nM or […] concentrations for 4 hours or 24 hours, running two biological replicates per condition and achieving quantifications representative of both replicates. […]
pEC50: −log10 of the molar value.
# pEC50 listing for each entry below
quantity-kind: pEC50

[[record]]
compound = "CNc1nc(Nc2ccc(C(=O)N3CCN(C[C@H]4CC[C@@H](CSC(C)(C)[C@H](NC(=O)C5(F)CC5)C(=O)N5C[C@H](O)CC5C(=O)NCc5ccc(-c6scnc6C)cc5)CC4)CC3)cc2OC)ncc1Cl (some centres unmarked) [XL01134]"
target = "LRRK2 pSer935"
data_value = 7.46

[[record]]
compound = "CNc1nc(Nc2ccc(C(=O)N3CCN(C[C@H]4CC[C@H](CSC(C)(C)[C@H](NC(=O)C5(F)CC5)C(=O)N5C[C@H](O)CC5C(=O)NCc5ccc(-c6scnc6C)cc5)CC4)CC3)cc2OC)ncc1Cl (some centres unmarked) [XL01126]"
target = "LRRK2 pSer935"
data_value = 7.74


###

Molecular target: LRRK2 (Homo sapiens, UniProt Q5S007)
Assay: NanoBRET-based ternary binding and cooperativity assay
Parameters: fused on or other part: NanoLuc luciferase fused to LRRK2 as the BRET donor tag
Conditions: permeabilized HEK293 cells, with VCB; read-out: IC50 LRRK2 engagement in the presence of VCB protein
quantity-kind: IC50 (nM)

[[record]]
molecule = "CNc1nc(Nc2ccc(C(=O)N3CCN(C[C@H]4CC[C@H](CSC(C)(C)[C@H](NC(=O)C5(F)CC5)C(=O)N5C[C@H](O)CC5C(=O)NCc5ccc(-c6scnc6C)cc5)CC4)CC3)cc2OC)ncc1Cl (stereo partly drawn)"
data_value = 350

[[record]]
molecule = "CNc1nc(Nc2ccc(C(=O)N3CCN(C[C@H]4CC[C@@H](CSC(C)(C)[C@H](NC(=O)C5(F)CC5)C(=O)N5C[C@H](O)CC5C(=O)NCc5ccc(-c6scnc6C)cc5)CC4)CC3)cc2OC)ncc1Cl (stereo partly drawn)"
data_value = 790

[[record]]
molecule = "CNc1nc(Nc2ccc(C(=O)N3CCN(CCOCCOCCSC(C)(C)[C@H](NC(=O)C4(F)CC4)C(=O)N4C[C@H](O)C[C@H]4C(=O)NCc4ccc(-c5scnc5C)cc4)CC3)cc2OC)ncc1Cl"
data_value = 1400


###

Reported Ki, VHL (Homo sapiens, UniProt P40337).
quantity-kind: Ki (µM)

[[record]]
molecule = "CNc1nc(Nc2ccc(C(=O)N3CCN(C[C@H]4CC[C@@H](CSC(C)(C)[C@H](NC(=O)C5(F)CC5)C(=O)N5C[C@H](O)CC5C(=O)NCc5ccc(-c6scnc6C)cc5)CC4)CC3)cc2OC)ncc1Cl (stereo partly shown)"
quantity_kind = "Ki"
qualifying_sign = "="
data_value = 0.16

[[record]]
molecule = "CNc1nc(Nc2ccc(C(=O)N3CCN(CCOCCOCCSC(C)(C)[C@H](NC(=O)C4(F)CC4)C(=O)N4C[C@H](O)C[C@H]4C(=O)NCc4ccc(-c5scnc5C)cc4)CC3)cc2OC)ncc1Cl"
quantity_kind = "Ki"
qualifying_sign = "="
data_value = 0.82

[[record]]
molecule = "CNc1nc(Nc2ccc(C(=O)N3CCN(C[C@H]4CC[C@H](CSC(C)(C)[C@H](NC(=O)C5(F)CC5)C(=O)N5C[C@@H](O)CC5C(=O)NCc5ccc(-c6scnc6C)cc5)CC4)CC3)cc2OC)ncc1Cl (stereo partly drawn) [Cis-XL01126]"
quantity_kind = "Ki"
qualifying_sign = ">"
data_value = 50

